B1: TPR t1 (parent)
chain: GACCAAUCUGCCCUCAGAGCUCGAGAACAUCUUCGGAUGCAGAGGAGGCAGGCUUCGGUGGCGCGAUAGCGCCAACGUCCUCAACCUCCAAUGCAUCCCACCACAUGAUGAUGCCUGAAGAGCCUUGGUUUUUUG

# Variants of: B1
# assay-remarks: polymerase ribozyme fitness, log enrichment relative to wild type (log ratio); higher = more active; in vitro selection for triplet polymerase activity

>  <mutation-descriptor>
C3G U7G C15U U55G C56U G128U

>  <polymerase ribozyme fitness (log ratio)>
-1.45

$$$$
>  <mutation-descriptor>
C12A C62U A83G A100C

>  <polymerase ribozyme fitness (log ratio)>
-3.89

$$$$
>  <mutation-descriptor>
C56U C85G A91U C101U U106C

>  <polymerase ribozyme fitness (log ratio)>
-4.05

$$$$
>  <mutation-descriptor>
C8G U87A

>  <polymerase ribozyme fitness (log ratio)>
0.833

$$$$
>  <mutation-descriptor>
C20G A83C A100U G120A U130C

>  <polymerase ribozyme fitness (log ratio)>
-5.79

$$$$
>  <mutation-descriptor>
U30A U112C

>  <polymerase ribozyme fitness (log ratio)>
-2.73

$$$$
>  <mutation-descriptor>
A75U U81A G113C U130C

>  <polymerase ribozyme fitness (log ratio)>
-3.89

$$$$
>  <mutation-descriptor>
C62U C64U

>  <polymerase ribozyme fitness (log ratio)>
-0.305

$$$$
>  <mutation-descriptor>
A6G G61C C79A U112G C114U

>  <polymerase ribozyme fitness (log ratio)>
-6.62

$$$$
>  <mutation-descriptor>
G69C G113C

>  <polymerase ribozyme fitness (log ratio)>
-4.05

$$$$
>  <mutation-descriptor>
G60U U131C

>  <polymerase ribozyme fitness (log ratio)>
-0.0582

$$$$
